- run.description: Tmax in male Sprague-Dawley rat at 100 mg/kg, po measured upto 240 hrs by LC/MS/MS analysis
- Assay type: ADME, organism-based
- condition.parameters: in vivo
observable: Tmax (h)

1. Cc1cccc(-c2c(O)c3scc(Br)c3[nH]c2=O)c1 ... 6

----------
- Tested on: Mycobacterium tuberculosis
- run.description: Antimycobacterial activity against marker-free avirulent autoluminescent Mycobacterium tuberculosis H37Ra assessed as inhibition of relative light unit relative to control
- Format: functional
observable: MIC90 (µg/mL)

1) Cc1cccc(-c2c(O)c3scc(Br)c3[nH]c2=O)c1 ... 0.5
2) Cc1ccc(-c2c(O)c3scc(Br)c3[nH]c2=O)cc1 ... 32
3) O=c1[nH]c2c(Br)csc2c(O)c1-c1ccc([N+](=O)[O-])cc1 ... 32
4) Cc1csc2c(O)c(-c3ccccc3)c(=O)[nH]c12 ... 4
5) O=c1[nH]c2c(Br)csc2c(O)c1-c1ccccc1F ... 0.5
6) O=c1[nH]c2c(Br)csc2c(O)c1-c1cccs1 ... 4
7) CC(=O)Oc1c(-c2ccccc2)c(=O)n(C(C)=O)c2c(Br)csc12 ... 4
8) O=c1[nH]c2c(Br)csc2c(O)c1-c1ccc(F)cc1 ... 2
9) O=c1[nH]c2c(Br)csc2c(O)c1-c1cccc(F)c1 ... 0.5
10) COc1cccc(-c2c(O)c3scc(Br)c3[nH]c2=O)c1 ... 8
